# target_system: Epithelial Sodium Channel (ENaC) (Canis lupus familiaris, UniProt A0A8I3MKE6+A0A8I3Q679+Q95165)
# Construct: endogenous in cells; host or cells: primary canine bronchial epithelial cells from freshly excised airways, cultured at air-liquid interface and mounted in Ussing chambers
# Sequence (A0A8I3Q679 1-649): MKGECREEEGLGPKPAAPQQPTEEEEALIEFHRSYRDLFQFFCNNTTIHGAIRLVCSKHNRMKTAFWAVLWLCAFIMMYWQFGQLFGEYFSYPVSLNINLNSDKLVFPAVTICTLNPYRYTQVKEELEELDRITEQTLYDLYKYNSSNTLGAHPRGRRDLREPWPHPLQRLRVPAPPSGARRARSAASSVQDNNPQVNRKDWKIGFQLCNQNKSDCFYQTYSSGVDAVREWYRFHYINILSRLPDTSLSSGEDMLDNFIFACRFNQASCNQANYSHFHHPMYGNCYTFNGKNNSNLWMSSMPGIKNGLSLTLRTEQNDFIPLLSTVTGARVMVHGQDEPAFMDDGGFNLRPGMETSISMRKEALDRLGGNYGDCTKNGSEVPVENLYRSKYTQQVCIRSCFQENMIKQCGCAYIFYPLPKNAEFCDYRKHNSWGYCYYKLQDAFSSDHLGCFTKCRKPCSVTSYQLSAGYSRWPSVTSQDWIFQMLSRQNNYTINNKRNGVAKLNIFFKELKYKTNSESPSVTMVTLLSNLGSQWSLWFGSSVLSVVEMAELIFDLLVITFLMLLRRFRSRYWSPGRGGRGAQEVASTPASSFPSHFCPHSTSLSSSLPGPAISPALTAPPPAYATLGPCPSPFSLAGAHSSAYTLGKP
# Sequence (Q95165 1-641): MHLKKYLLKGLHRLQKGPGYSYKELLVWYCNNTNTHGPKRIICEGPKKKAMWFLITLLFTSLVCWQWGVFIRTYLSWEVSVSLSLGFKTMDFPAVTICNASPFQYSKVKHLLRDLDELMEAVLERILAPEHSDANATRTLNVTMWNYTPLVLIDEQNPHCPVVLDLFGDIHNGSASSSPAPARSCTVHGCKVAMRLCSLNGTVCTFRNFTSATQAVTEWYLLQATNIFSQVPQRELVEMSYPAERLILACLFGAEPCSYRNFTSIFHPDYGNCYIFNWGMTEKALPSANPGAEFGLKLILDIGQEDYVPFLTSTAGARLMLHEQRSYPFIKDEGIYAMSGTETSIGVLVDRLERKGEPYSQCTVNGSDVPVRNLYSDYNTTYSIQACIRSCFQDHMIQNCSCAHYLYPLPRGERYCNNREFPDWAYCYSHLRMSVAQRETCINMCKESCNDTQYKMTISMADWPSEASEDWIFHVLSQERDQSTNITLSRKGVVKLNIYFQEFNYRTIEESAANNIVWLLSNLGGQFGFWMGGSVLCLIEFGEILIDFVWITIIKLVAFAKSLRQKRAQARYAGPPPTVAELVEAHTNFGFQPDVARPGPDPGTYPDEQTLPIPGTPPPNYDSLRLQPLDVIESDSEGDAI
# Sequence (A0A8I3MKE6 1-646): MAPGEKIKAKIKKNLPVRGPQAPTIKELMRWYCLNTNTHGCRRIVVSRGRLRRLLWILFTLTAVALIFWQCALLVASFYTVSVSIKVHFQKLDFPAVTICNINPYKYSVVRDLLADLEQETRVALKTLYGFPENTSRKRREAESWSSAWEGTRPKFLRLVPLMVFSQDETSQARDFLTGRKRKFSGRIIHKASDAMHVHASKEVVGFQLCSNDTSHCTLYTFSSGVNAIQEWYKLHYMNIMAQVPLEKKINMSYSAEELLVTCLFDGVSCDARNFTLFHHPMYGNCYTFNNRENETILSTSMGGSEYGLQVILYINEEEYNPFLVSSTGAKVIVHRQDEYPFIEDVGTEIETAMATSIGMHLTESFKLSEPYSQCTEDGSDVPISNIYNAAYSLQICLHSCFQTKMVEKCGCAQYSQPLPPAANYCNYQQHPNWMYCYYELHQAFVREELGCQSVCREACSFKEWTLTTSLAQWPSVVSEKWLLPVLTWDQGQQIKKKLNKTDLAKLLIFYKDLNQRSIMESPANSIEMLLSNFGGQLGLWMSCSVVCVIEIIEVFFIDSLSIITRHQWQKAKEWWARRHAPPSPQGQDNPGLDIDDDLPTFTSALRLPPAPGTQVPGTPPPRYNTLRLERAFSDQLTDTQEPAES
# method_notes: Sodium channel (ENaC) blocking activity, short circuit current in airway epithelial monolayers in Ussing chambers
# Format: cell-based
# test_context: canine bronchial epithelium; Table 3; read-out: IC50 (nM), Epithelial Sodium Channel Blocking Activity of Selected Amides
Listed next: entries and their corresponding IC50.

molecule	IC50 / nM
CN(C)CCCCNC(=O)COc1ccc(CCCCNC(=N)NC(=O)c2nc(Cl)c(N)nc2N)cc1 [PSA 24305]	6
CN(C)CCNC(=O)COc1ccc(CCCCNC(=N)NC(=O)c2nc(Cl)c(N)nc2N)cc1 [PSA 23185a]	14
N=C(NCCCCc1ccc(OCC(=O)N2CCNCC2)cc1)NC(=O)c1nc(Cl)c(N)nc1N [PSA 19913]	9
N=C(NCCCCc1ccc(OCC(=O)NCCN(CCO)CCO)cc1)NC(=O)c1nc(Cl)c(N)nc1N [PSA 23450]	18
CN(C)CCCNC(=O)COc1ccc(CCCCNC(=N)NC(=O)c2nc(Cl)c(N)nc2N)cc1 [PSA 24304, dimethanesulfonate]	4
